Target: Voltage-gated inwardly rectifying potassium channel KCNH2 (Homo sapiens, UniProt Q12809)
Sequence (Q12809 whole entry): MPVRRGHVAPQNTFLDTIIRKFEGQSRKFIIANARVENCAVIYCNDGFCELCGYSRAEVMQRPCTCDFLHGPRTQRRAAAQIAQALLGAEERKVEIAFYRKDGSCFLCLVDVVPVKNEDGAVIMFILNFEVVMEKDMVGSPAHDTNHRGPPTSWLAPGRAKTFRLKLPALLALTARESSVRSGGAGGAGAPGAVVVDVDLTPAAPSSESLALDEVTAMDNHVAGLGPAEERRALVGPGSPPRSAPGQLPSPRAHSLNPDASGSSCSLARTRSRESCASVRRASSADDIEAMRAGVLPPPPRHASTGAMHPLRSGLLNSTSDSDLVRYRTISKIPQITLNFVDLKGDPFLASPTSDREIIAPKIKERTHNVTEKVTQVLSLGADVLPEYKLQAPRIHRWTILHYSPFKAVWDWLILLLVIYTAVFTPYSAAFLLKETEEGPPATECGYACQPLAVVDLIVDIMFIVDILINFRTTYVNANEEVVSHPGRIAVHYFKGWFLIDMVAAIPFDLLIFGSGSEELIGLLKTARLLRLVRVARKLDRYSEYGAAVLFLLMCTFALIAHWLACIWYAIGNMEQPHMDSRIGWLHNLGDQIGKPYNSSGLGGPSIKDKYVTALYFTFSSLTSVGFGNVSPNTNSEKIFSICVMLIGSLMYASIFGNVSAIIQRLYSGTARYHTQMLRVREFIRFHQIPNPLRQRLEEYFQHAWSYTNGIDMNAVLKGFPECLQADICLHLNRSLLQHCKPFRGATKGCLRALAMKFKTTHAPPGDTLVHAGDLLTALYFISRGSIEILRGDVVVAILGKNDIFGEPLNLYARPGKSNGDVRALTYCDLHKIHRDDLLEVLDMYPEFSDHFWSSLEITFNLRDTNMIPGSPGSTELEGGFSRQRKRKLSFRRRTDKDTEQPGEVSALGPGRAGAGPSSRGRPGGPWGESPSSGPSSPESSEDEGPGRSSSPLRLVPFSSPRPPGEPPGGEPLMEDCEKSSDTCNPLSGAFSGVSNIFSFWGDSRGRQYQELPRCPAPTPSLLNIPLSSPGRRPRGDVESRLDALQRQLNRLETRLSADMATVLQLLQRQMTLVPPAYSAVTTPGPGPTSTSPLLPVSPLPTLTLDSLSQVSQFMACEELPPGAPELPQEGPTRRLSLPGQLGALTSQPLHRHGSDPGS
Test: Inhibition of hERG transfected in HEK293 cells at 20 mV

SAMPLE_SMILES | IC50
C[C@@H](n1cc(-c2cncc(N(C)C)c2)nn1)n1ccc(N2CCC[C@@H](NCC3CC3)C2)cc1=O | > 30 µM

* * *

System: Kasumi 1
Assay: Antiproliferative activity against human Kasumi 1 cells assessed as inhibition of cell viability incubated for 72 hrs by ATPlite assay
Assay type: functional, cell-based
Conditions: Kasumi 1, 72 h
ASSAY_ENDPOINT: log10 IC50 (log10 of the value in nM)

COMPOUND | log10 IC50
COc1cc(-c2cn(C(C)n3ccc(N4CCC[C@@H](NCC5CCC5)C4)cc3=O)nn2)c2cn[nH]c2c1 (stereo partly drawn) | 2.64
CC(n1cc(-c2cncc(-n3cccn3)c2)nn1)n1ccc(N2CCC[C@@H](NCC3CCC3)C2)cc1=O (stereo partly drawn) | 2.48
COc1cncc(-c2ncn(C(C)n3ccc(N4CCC[C@@H](NCC5CCC5)C4)cc3=O)n2)c1 (stereo partly drawn) | 3.21
CC(n1cc(-c2cncc(N(C)C)c2)nn1)n1ccc(N2CCC[C@@H](NCC3CCC3)C2)cc1=O (stereo partly drawn) | 1.64
COc1cc(-c2cn(Cc3ccc(N4CCC[C@@H](NC(C)C5CCC5)C4)nn3)nn2)c2cn[nH]c2c1 (stereo partly drawn) | 4.00
O=C(NCc1ccc2cc(CNCC3CCC3)[nH]c2c1)c1cc(=O)n2ccccc2n1 | 3.06
CC(n1cc(-c2cccn3cncc23)nn1)n1ccc(N2CCC[C@@H](NCC3CCC3)C2)cc1=O (stereo partly drawn) | 3.73
COc1cncc(-c2cc(C(C)n3ccc(N4CCC[C@@H](NCC5CCC5)C4)cc3=O)sn2)c1 (stereo partly drawn) | 3.24
COc1cncc(-c2cn(C(c3ccc(N4CCC[C@@H](NCC5CCC5)C4)nn3)C(F)(F)F)nn2)c1 (stereo partly drawn) | 4.09
COc1cncc(-c2cn(C3(c4ccc(N5CCC[C@@H](NCC6CCC6)C5)nn4)CC3)nn2)c1 | 3.99
CC(n1cc(-c2cncc(N(C)C)n2)nn1)n1ccc(N2CCC[C@@H](NCC3CCC3)C2)cc1=O (stereo partly drawn) | 1.54
CCOc1cncc(-c2cn(C(C)n3ccc(N4CCC[C@@H](NCC5CCC5)C4)cc3=O)nn2)c1 (stereo partly drawn) | 2.48
COc1cc(-c2cn(Cc3ccc(N4CCC[C@@H](NC5CC56CCC6)C4)nn3)nn2)c2cn[nH]c2c1 (stereo partly drawn) | 3.04
COc1cncc(-c2nnc(C(C)n3ccc(N4CCC[C@@H](NCC5CCC5)C4)cc3=O)s2)c1 (stereo partly drawn) | 2.70
COc1cncc(-c2cn(Cc3ccc(N4CCC[C@@H](NCC5CCC5)C4)cn3)nn2)c1 | 2.95
CCC(c1ccc(N2CCC[C@@H](NCC3CCC3)C2)nn1)n1cc(-c2cncc(OC)c2)nn1 (stereo partly drawn) | 3.78
COc1cncc(-c2cn(Cn3ncc(N4CCC[C@@H](NCC5CCC5)C4)cc3=O)nn2)c1 | 4.07
COc1cc(-c2cn(Cc3ccc(N4CCC[C@@H](NCC5CC5)C4)nn3)nn2)c2cn[nH]c2c1 | 3.02
C[C@@H](n1cc(-c2cncc(N(C)C)c2)nn1)n1ccc(N2CCC[C@@H](NCC3CC3)C2)cc1=O | 1.57
COc1cc(-c2cn(Cc3ccc(N4CCC[C@@H](NCC(C)C)C4)nn3)nn2)c2cn[nH]c2c1 | 3.25
C[C@@H](n1cc(-c2cncc(N3CCCC3)n2)nn1)n1ccc(N2CCC[C@@H](NCC3CC3)C2)cc1=O | 1.11
COc1cncc(-n2cc(C(C)n3ccc(N4CCC[C@@H](NCC5CCC5)C4)cc3=O)cn2)c1 (stereo partly drawn) | 2.49
COc1cncc(-c2cn(C(C)n3ccc(N4CCC[C@@H](NCC5CCC5)C4)cc3=O)nn2)n1 (stereo partly drawn) | 2.82
CC(n1cc(-c2cncc(N3CCCC3)c2)nn1)n1ccc(N2CCC[C@@H](NCC3CCC3)C2)cc1=O (stereo partly drawn) | 0.85
COc1cnnc(-c2cn(C(C)n3ccc(N4CCC[C@@H](NCC5CCC5)C4)cc3=O)nn2)c1 (stereo partly drawn) | 3.73
